Target: T1, recombinant human PSMA (prostate-specific membrane antigen), biotin-tagged (human, UniProt Q04609 44-750, biotin tag (site not stated))
T1 construct: also called biotin-tagged PSMA; biotin-labelled PSMA
T1 sequence (Q04609 44-750 limits assumed): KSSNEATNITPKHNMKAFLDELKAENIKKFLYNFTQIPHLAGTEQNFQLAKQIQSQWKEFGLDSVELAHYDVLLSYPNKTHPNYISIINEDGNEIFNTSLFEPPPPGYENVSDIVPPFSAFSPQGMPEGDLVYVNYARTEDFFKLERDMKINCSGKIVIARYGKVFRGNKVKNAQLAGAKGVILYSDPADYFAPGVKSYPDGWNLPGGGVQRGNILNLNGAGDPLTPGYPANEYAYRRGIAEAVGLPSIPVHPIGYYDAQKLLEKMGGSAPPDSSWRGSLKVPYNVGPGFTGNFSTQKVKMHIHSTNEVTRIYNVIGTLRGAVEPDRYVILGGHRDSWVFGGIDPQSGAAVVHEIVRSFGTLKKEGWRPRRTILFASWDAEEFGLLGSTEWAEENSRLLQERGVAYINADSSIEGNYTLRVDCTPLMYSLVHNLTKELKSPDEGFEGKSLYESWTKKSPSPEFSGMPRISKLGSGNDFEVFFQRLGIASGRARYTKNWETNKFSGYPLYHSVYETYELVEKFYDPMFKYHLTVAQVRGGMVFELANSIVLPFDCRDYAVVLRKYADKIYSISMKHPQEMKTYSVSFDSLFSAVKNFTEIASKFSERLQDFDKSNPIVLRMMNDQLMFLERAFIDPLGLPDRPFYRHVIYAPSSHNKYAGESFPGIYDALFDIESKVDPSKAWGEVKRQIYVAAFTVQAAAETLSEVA
Assay: ELISA on plates coated with recombinant PSMA, column head 'ELISA (nM)'
quantity: pKd
Remember the convention: pKd equals -log10 of concentration in molar.

binder | result
h5D3 variant HVg2 (antibody, human IgG1, V domains shown, Full-length human IgG1 kappa variant of h5D3 (antibody 6)) VH: EVQLVESGGGLVQPGGSLRLSCAASGYAFQTSWMNWVRQAPGKGLEWISRIYPGDADTNYNAKFKGKATISADKSKNTLYLQMNSLRAEDTAVYYCARGEWYLYYFDYWGQGTLVTVSS VL: DIQMTQSPSSLSASVGDRVTITCSASQGINNFLTWYQQKPGKALKLLIYYTSSLHSGVPSRFSGSGSGTDYTLTISSLQPEDFATYYCQQYSNLPFTFGQGTKVEIK | 9.47
h5D3 variant HVg5 (antibody, human IgG1, V domains shown, Full-length human IgG1 kappa variant of h5D3 (antibody 6)) VH: EVQLVESGGGLVQPGGSLRLSCAASGYAFQTSWMNWVRQAPGKGLEWISRIYPGEGSTNYNAKFKGKATISADKSKNTLYLQMNSLRAEDTAVYYCARGEWYLYYFDYWGQGTLVTVSS VL: DIQMTQSPSSLSASVGDRVTITCSASQGINNFLTWYQQKPGKALKLLIYYTSSLHSGVPSRFSGSGSGTDYTLTISSLQPEDFATYYCQQYSNLPFTFGQGTKVEIK | 10.22
6-5D3-IgG1 (antibody, V domains shown, N-glycosylation at VH N30, also called h5D3; humanized 5D3) VH: EVQLVESGGGLVQPGGSLRLSCAASGYAFNTSWMNWVRQAPGKGLEWISRIYPGDGDTNYNGKFKGKATISADKSKNTLYLQMNSLRAEDTAVYYCARGEWYLYYFDYWGQGTLVTVSS VL: DIQMTQSPSSLSASVGDRVTITCSASQGINNFLTWYQQKPGKALKLLIYYTSSLHSGVPSRFSGSGSGTDYTLTISSLQPEDFATYYCQQYSNLPFTFGQGTKVEIK | 9.60
h5D3 variant LVg2HVg7 (antibody, human IgG1, V domains shown, Full-length human IgG1 kappa variant of h5D3 (antibody 6)) VH: EVQLVESGGGLVQPGGSLRLSCAASGYAFQTSWMNWVRQAPGKGLEWISRIYPGDGDTNYNGKFKGKATISADKSKNTLYLQMNSLRAEDTAVYYCARGEWYLYYFDYWGQGTLVTVSS VL: DIQMTQSPSSLSASVGDRVTITCSASQGIENFLTWYQQKPGKALKLLIYYTSSLHSGVPSRFSGSGSGTDYTLTISSLQPEDFATYYCQQYSNLPFTFGQGTKVEIK | 9.43
h5D3 variant LVg2HVg2 (antibody, human IgG1, V domains shown, Full-length human IgG1 kappa variant of h5D3 (antibody 6)) VH: EVQLVESGGGLVQPGGSLRLSCAASGYAFQTSWMNWVRQAPGKGLEWISRIYPGDADTNYNAKFKGKATISADKSKNTLYLQMNSLRAEDTAVYYCARGEWYLYYFDYWGQGTLVTVSS VL: DIQMTQSPSSLSASVGDRVTITCSASQGIENFLTWYQQKPGKALKLLIYYTSSLHSGVPSRFSGSGSGTDYTLTISSLQPEDFATYYCQQYSNLPFTFGQGTKVEIK | 9.33

Task item: Kindly indicate its recorded pKd. Item: h5D3 variant HVg3 (antibody, human IgG1, V domains shown, Full-length human IgG1 kappa variant of h5D3 (antibody 6)) VH: EVQLVESGGGLVQPGGSLRLSCAASGYAFQTSWMNWVRQAPGKGLEWISRIYPGEGETNYNAKFKGKATISADKSKNTLYLQMNSLRAEDTAVYYCARGEWYLYYFDYWGQGTLVTVSS VL: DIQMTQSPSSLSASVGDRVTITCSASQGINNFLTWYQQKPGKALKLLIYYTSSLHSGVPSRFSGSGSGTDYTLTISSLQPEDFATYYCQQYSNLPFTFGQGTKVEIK
Reply: 9.03

Task item: Kindly indicate its recorded pKd. Item: h5D3 variant LVg2 (antibody, human IgG1, V domains shown, Full-length human IgG1 kappa variant of h5D3 (antibody 6)) VH: EVQLVESGGGLVQPGGSLRLSCAASGYAFNTSWMNWVRQAPGKGLEWISRIYPGDGDTNYNGKFKGKATISADKSKNTLYLQMNSLRAEDTAVYYCARGEWYLYYFDYWGQGTLVTVSS VL: DIQMTQSPSSLSASVGDRVTITCSASQGIENFLTWYQQKPGKALKLLIYYTSSLHSGVPSRFSGSGSGTDYTLTISSLQPEDFATYYCQQYSNLPFTFGQGTKVEIK
Reply: 9.54

Task item: Kindly indicate its recorded pKd. Item: h5D3 variant LVg2HVg5 (antibody, human IgG1, V domains shown, Full-length human IgG1 kappa variant of h5D3 (antibody 6)) VH: EVQLVESGGGLVQPGGSLRLSCAASGYAFQTSWMNWVRQAPGKGLEWISRIYPGEGSTNYNAKFKGKATISADKSKNTLYLQMNSLRAEDTAVYYCARGEWYLYYFDYWGQGTLVTVSS VL: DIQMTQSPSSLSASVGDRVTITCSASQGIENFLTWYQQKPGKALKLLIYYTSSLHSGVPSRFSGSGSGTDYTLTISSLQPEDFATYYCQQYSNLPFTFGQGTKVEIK
Reply: 9.70

Task item: Kindly indicate its recorded pKd. Item: h5D3 variant LVg2HVg4 (antibody, human IgG1, V domains shown, Full-length human IgG1 kappa variant of h5D3 (antibody 6)) VH: EVQLVESGGGLVQPGGSLRLSCAASGYAFQTSWMNWVRQAPGKGLEWISRIYPGEGDTNYNAKFKGKATISADKSKNTLYLQMNSLRAEDTAVYYCARGEWYLYYFDYWGQGTLVTVSS VL: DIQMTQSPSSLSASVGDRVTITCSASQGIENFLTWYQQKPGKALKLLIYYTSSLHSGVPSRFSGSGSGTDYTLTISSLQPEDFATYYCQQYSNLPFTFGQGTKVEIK
Reply: 9.30
